ASSAYED_TARGET: BTK (Homo sapiens (Human))
Sequence (Q06187 whole entry): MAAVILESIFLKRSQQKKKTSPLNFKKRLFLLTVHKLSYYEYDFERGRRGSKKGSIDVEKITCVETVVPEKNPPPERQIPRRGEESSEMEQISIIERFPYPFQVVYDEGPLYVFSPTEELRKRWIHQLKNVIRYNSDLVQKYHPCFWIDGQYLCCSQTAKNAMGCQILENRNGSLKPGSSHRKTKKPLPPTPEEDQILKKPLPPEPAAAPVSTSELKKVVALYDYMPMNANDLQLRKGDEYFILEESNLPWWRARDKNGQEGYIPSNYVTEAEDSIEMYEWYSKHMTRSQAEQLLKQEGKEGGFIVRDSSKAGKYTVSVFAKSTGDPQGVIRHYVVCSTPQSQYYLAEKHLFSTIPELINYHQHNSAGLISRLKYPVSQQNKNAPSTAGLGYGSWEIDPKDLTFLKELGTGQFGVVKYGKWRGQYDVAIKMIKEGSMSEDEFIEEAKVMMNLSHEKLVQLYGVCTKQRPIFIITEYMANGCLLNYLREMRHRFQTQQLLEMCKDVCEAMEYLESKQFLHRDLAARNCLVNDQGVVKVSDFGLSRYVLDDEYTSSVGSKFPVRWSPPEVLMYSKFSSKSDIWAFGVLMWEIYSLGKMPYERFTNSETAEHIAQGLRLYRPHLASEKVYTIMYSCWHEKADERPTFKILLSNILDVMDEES
TEST_METHOD_NOTES: Btk in vitro inhibitory activity (one of Method A TR-FRET, Method B electrophoretic mobility shift, Method C radiometric filter binding)
Assay type: biochemical
TEST_SETTINGS: determined using one of the methods of Example 355a, 355b and 355c; read-out: BTK IC50
OBSERVED_PROPERTY: IC50

Consider the molecule shown here: NC(=O)c1nnc(N2CCC[C@@H](NC(=O)C3CC3)C2)nc1Nc1ccc(C(=O)N2CCOCC2)cc1 What is its recorded IC50?
0.01 to 0.1 µM

* * *

ASSAYED_TARGET: UniProtKB Q06187
TEST_METHOD_NOTES: Btk in vitro inhibitory activity (one of Method A TR-FRET, Method B electrophoretic mobility shift, Method C radiometric filter binding)
Assay type: biochemical
TEST_SETTINGS: read-out: Btk (IC50)
pIC50: −log10 of the molar value.
OBSERVED_PROPERTY: pIC50

C[C@@H]1[C@H](NC(=O)N(C)C)CCCN1c1cnc(C(N)=O)c(Nc2ccc(C3(C)CCN(C4CCC4)CC3)cc2)n1    > 8.00
CN(C)C(=O)N[C@@H]1CCCN(c2cnc(C(N)=O)c(Nc3ccc(N4CCN(C5CC5)CC4)cc3)n2)C1    > 8.00
CCN(CC)C(=O)N[C@@H]1CCCN(c2nnc(C(N)=O)c(Nc3ccc(C(=O)N4CCOCC4)cc3)n2)C1    > 8.00
NC(=O)c1ncc(N2CCC[C@@H](N3CCN(C4CC4)C3=O)C2)nc1Nc1ccc(C2CCN(C3CCCC3)CC2)cc1    > 8.00
CN(C)C(=O)N[C@@H]1CCCN(c2cnc(C(N)=O)c(Nc3ccc(C4CCN(C(=O)N(C)C)CC4)cc3)n2)C1    > 8.00
CN(C)C(=O)N[C@@H]1CCCN(c2cnc(C(N)=O)c(Nc3ccc(C4CCN(C5CCCCC5)CC4)cc3)n2)C1    > 8.00
CN1CCN([C@@H]2CCCN(c3cnc(C(N)=O)c(Nc4ccc(C5CCN(C6CCCC6)CC5)cc4)n3)C2)C1=O    > 8.00
COc1ccc(C(=O)N[C@@H]2CCCN(c3cnc(C(N)=O)c(Nc4ccc(C5CCN(C6CC6)CC5)cc4)n3)C2)cc1    > 8.00
CN1CCC(c2ccc(Nc3nc(N4CCC[C@@H](NC(=O)N5CCCCC5)C4)cnc3C(N)=O)cc2)CC1    > 8.00
CC[C@@H]1[C@H](NC(=O)N(C)C)CCCN1c1cnc(C(N)=O)c(Nc2ccc(C3CCN(C4CCC4)CC3)cc2)n1    > 8.00

Consider the molecule shown here: NC(=O)c1ncc(N2CCC[C@@H](N3Cc4ccccc4C3=O)C2)nc1Nc1ccc(C2CCN(C3CCCC3)CC2)cc1 What is its recorded pIC50?
> 8.00

Consider the molecule shown here: CN1CCCN([C@@H]2CCCN(c3cnc(C(N)=O)c(Nc4ccc(C5CCN(C6CCCC6)CC5)cc4)n3)C2)C1=O What is its recorded pIC50?
> 8.00

Consider the molecule shown here: NC(=O)c1ncc(N2CCC[C@@H](NC(=O)N3CCCCC3)C2)nc1Nc1ccc(C2CCN(C=O)CC2)cc1 What is its recorded pIC50?
> 8.00

Consider the molecule shown here: CCOc1ccc(C(=O)N[C@@H]2CCCN(c3nnc(C(N)=O)c(Nc4ccc(C(=O)N5CCOCC5)cc4)n3)C2)cc1 What is its recorded pIC50?
> 8.00
